# measurement_protocol: P. aeruginosa biofilm formation inhibitors, primary screen, strain PAO1, LB-PBS medium, absorbance 600 nm (AID 1176); also: test concentration not given here
# condition_summary: P. aeruginosa PAO1 growth/biofilm, A600, 12 h; higher = more signal
value_kind: z-score
Answers are plain numbers.

>  <entry_smiles>
CC(C)C[C@@H]1NC(=O)[C@@H]2C[C@H](C(=O)NCc3ccc(F)cc3)[C@H](c3cccc(OCCO)c3)N2C1=O

>  <numeric_readout>
0.475

$$$$
>  <entry_smiles>
COC(=O)[C@]1(CCC(=O)OC(C)(C)C)N=C(c2ccc(OCCCO)cc2)O[C@@H]1c1ccccc1CN=[N+]=[N-]

>  <numeric_readout>
1.53

$$$$
>  <entry_smiles>
O=C1C[C@]2(c3ccc([N+](=O)[O-])cc3)C(=O)N(CC(F)(F)F)c3cc(CO)ccc3[C@H]2N1C1CCCCC1

>  <numeric_readout>
-0.686

$$$$

Shift focus to the following entry.
Request: Tell me z-score reported for C=C[C@H](C)[C@@H](OC(=O)Nc1ccc(OC)cc1)c1ccc(O)c2ccccc12
Response: 0.802

Reference source: PubChem BioAssay
